Attribution: BindingDB's records for doi:10.1128/aac.40.5.1304

- target_desc: Polymerase acidic protein (Influenza A virus (strain A/Puerto Rico/8/1934 H1N1), UniProt P03433)
- test_details: Inhibition of Influenza replication
measured_property: IC50 (nM)
Number in nM, nothing else.

Prompt: // returns reported IC50 for input O=C(O)C(=O)CC(=O)C1(Cc2ccc(Cl)cc2)CCCN(Cc2ccccc2)C1 (configuration not stated)
Completion: 1600

Now take the following compound into account.
Prompt: Requested field: IC50. Item: `O=C(O)C(=O)CC(=O)C1(Cc2ccc(Cl)cc2)CCN(Cc2ccc(Cl)cc2)CC1`
Completion: 180
